Measured koff of individual entries
- target-or-test-system: T1, recombinant RSV protein G, G(B): residues 66-292 of strain 18537 (human respiratory syncytial virus …, UniProt P20896 66-292)
- T1 construct: also called soluble recombinant G protein; recombinant protein G
- T1 sequence: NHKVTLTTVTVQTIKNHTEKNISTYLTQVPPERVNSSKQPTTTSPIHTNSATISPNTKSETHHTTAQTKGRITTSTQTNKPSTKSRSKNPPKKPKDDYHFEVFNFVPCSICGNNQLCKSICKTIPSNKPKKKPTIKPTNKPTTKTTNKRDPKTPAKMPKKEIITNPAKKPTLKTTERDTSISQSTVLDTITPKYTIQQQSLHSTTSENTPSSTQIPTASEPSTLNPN
- protocol-text: SPR Biacore 3000, Fab over amine-coupled recombinant protein G

# binder, recorded-measurement
measured = [
    ("Fab fragment of antibody 816 (Fab) VH: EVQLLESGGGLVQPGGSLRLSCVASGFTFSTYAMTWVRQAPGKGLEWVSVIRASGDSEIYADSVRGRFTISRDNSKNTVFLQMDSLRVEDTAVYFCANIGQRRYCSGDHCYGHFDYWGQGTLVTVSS light: DIVMTQSPLSLPVTPGEPASISCRSSQSLLHSDGRYYVDWYLQKPGQSPHLLIYLASNRASGVPDRFTGSGSGTDFTLKISRVEAEDVGVYYCMQGLHTPWTFGQGTKVDIKRTVAAPSVFIFPPSDEQLKSGTASVVCLLNNFYPREAKVQWKVDNALQSGNSQESVTEQDSKDSTYSLSSTLTLSKADYEKHKVYACEVTHQGLSSPVTKSFNRGEC", "0.000178 s⁻¹"),
]

**Q:** Quote koff reported for Fab fragment of antibody 838 (Fab, also called Fab clone 838) VH: QVQLVESGGGVVQPGTSLRLSCAASGFTFSTFGMHWVRQAPGKGLEWVAVISYDGNKKYYADSVKGRFTISRDNSKNTLYLQVNSLRVEDTAVYYCAAQTPYFNESSGLVPDWGQGTLVTVSS light: DIQMTQSPSSLSASVGDRVSITCRASQGISNYLAWYQQKPGKVPKLLIYAASTLQSGVPSRFSGSGSGTDFTLTISSLQPEDVATYYCQKYNSAPQTFGQGTKVEIKRTVAAPSVFIFPPSDEQLKSGTASVVCLLNNFYPREAKVQWKVDNALQSGNSQESVTEQDSKDSTYSLSSTLTLSKADYEKHKVYACEVTHQGLSSPVTKSFNRGEC please.
**A:** 5.06e-05 s⁻¹

**Q:** Indicate the recorded koff value for this binder: Fab fragment of antibody 796 (Fab, also called Fab clone 796) VH: QVQLVESGGGVVQPGRSLRLSCAASGFSFSHFGMHWVRQVPGKGLEWVAIISYDGNNVHYADSVKGRFTISRDNSKNTLFLQMNSLRDDDTGVYYCAKDDVATDLAAYYYFDVWGRGTLVTVSS light: DIVMTQTPLSLSVTPGQPASISCRSSQSLLRSDGKTFLYWYLQKPGQSPQPLMYEVSSRFSGVPDRFSGSGSGADFTLNISRVETEDVGIYYCMQGLKIRRTFGPGTKVEIKRTVAAPSVFIFPPSDEQLKSGTASVVCLLNNFYPREAKVQWKVDNALQSGNSQESVTEQDSKDSTYSLSSTLTLSKADYEKHKVYACEVTHQGLSSPVTKSFNRGEC
**A:** 0.000403 s⁻¹

Origin of values: patent US20080226630A1
